Numbers sourced from the supplement of paper PMC10065799.

Target: SHP2-C SH2;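 further: peptide library displayed on the E. coli surface as eCPX fusions, selected cells deep-sequenced, score is each peptide's frequency after selection divided by its frequency in the input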
Experiment: SH2 binding enrichment of the phosphorylated peptide, bacterial display (enrichment ratio); higher = better substrate or ligand; peptides without Tyr show the background
SH2 binding enrichment values, listed per item
Result Type: SH2 binding enrichment

construct_sequence="NSFKYYMSDDI [ATRX_Y204_C200S]" recorded_value=0.746
construct_sequence="PFVFFYSFLLK [PTEN_Y178_R173P_YF]" recorded_value=0.913
construct_sequence="INNIDYFKKTT [FGFR2_Y656_YF]" recorded_value=0.598

###

Target: EPHB1 (UniProt P54762)
Sequence (P54762 whole entry, looked up): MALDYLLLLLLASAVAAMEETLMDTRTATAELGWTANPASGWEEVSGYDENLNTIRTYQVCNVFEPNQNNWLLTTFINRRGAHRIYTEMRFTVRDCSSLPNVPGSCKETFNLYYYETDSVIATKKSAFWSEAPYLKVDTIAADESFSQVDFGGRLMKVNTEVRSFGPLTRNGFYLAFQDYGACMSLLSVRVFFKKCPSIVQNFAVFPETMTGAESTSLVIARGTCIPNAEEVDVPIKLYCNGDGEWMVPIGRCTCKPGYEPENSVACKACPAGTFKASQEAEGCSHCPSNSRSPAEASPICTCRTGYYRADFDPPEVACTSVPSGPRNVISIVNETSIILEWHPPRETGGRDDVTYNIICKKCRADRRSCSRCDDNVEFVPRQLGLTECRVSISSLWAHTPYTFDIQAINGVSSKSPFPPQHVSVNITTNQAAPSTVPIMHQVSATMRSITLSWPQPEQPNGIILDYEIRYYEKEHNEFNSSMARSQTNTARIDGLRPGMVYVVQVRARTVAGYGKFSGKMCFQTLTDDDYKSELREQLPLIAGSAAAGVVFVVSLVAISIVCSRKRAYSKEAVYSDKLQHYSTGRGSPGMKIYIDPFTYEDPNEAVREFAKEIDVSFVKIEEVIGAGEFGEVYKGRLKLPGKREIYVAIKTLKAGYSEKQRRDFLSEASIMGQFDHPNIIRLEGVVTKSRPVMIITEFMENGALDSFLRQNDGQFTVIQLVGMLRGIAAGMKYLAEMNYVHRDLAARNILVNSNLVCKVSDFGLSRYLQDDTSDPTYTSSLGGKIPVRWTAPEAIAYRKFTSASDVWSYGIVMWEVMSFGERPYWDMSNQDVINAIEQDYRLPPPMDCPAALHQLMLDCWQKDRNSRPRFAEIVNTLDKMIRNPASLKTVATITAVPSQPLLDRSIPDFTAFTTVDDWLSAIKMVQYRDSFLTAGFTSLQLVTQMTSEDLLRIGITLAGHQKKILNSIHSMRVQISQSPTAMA
Assay: phosphorylation enrichment, bacterial display (enrichment ratio); higher = better substrate or ligand; peptides without Tyr show the background
Binary call on phosphorylation enrichment: Condition met from 0.6 upward, Condition not met beneath that.

construct_sequence="FKPENYRRLDI [VHL_Y175_V170F]" label_value="Condition not met"
construct_sequence="SVMAEYGLFRA [VSX2_Y219_G223R_YF]" label_value="Condition not met"
construct_sequence="SHISGYATLRR [RAPH1_Y1226]" label_value="Condition not met"
construct_sequence="EFRFIYMAVQH [PTPN11_Y515_Q510E_YF]" label_value="Condition met"
construct_sequence="TPGPNYCPGFN [USH2A_Y463_R464C_YF]" label_value="Condition not met"
construct_sequence="VVQGIYGYHHY [UFSP2_Y285]" label_value="Condition met"
